Test system: HGB cell line
Experiment: Cell penetration efficiency in glioblastoma cells
Format: cell-based, human
Details: 4 μM FITC-conjugated CPP, one hour

SEQUENCE | cell permeability compared with TAT
RPALKQRRWRRKKK [C117] | higher cell permeability
KARARRILRRREAP [C191] | higher cell permeability
ARRLRRRTAKLPAR [C102] | higher cell permeability
RRALRRRAQRRGAP [C181] | higher cell permeability
ALVLLRRRRRDRKP [C14] | higher cell permeability
YRPRRKKITKKLKR [C283] | higher cell permeability
SRRRLRRFLRRIAP [C185] | higher cell permeability
LVPRRLRRRARRRK [C179] | higher cell permeability
RALRRRLHRQRKLP [C355] | higher cell permeability
RVAALLRRRRRERP [C202] | higher cell permeability
KARARRILRRRETP [C190] | higher cell permeability
RERKRANRKKLKKP [C310] | higher cell permeability
RPRRKKQIKRLCKR [C16] | higher cell permeability
YRPRRKKATKKLKR [C284] | higher cell permeability
SVKRRRRRALAKRP [C341] | higher cell permeability
KKRKKRRKKRKVDP [C67] | higher cell permeability
